Target: Neutrophil collagenase (Homo sapiens)
Sequence (P22894 whole entry): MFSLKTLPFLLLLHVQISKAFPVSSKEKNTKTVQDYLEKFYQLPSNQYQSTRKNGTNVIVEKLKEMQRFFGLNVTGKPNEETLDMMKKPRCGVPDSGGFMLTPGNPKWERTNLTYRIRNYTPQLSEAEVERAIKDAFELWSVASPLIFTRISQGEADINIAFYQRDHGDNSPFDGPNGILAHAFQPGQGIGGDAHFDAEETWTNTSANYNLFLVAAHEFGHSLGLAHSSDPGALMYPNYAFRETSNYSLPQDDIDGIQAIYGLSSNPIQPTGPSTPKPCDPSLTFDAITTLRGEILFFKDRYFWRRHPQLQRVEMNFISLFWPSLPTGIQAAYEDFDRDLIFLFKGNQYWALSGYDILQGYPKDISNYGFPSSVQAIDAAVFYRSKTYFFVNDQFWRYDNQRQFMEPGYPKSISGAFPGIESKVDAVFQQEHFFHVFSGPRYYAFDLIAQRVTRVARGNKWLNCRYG
Assay: Inhibitory concentration against human matrix metalloprotease-8 (human neutrophil collagenase, MMP-8)
pIC50: −log10 of the molar value.
metric: pIC50

[1] O=C(NO)C1Cc2ccccc2CN1S(=O)(=O)c1ccc2ccccc2c1 (stereo not given)
[2] COc1ccc(S(=O)(=O)N2Cc3cc(O)ccc3CC2C(=O)NO)cc1 (stereo not given)
[3] N#Cc1ccc(Oc2ccc(S(=O)(=O)N3Cc4ccccc4CC3C(=O)O)cc2)cc1 (stereo not given)
[4] O=C(c1ccccc1)c1ccc(S(=O)(=O)N2Cc3ccccc3CC2C(=O)O)cc1 (stereo not given)
Please rank the 4 items above; order by pIC50, the highest number leading. Reply format: the labels, ordered as requested.
2, 3, 1, 4
(2: 9.00, 3: 8.00, 1: 7.15, 4: 6.52)

----------
Experiment: Affinity ratio of IC50 of MMP-3 to IC50 of MMP-8
metric: log10(IC50 MMP-3/IC50 MMP-8)

molecule	log10(IC50 MMP-3/IC50 MMP-8)
O=C(NO)C1Cc2ccccc2CN1S(=O)(=O)c1ccc2[nH]c(-c3ccccc3)nc2c1 (stereo not given)	1.1
COc1ccc(S(=O)(=O)N2Cc3ccccc3C[C@@H]2C(=O)NO)cc1	0.7
O=C(NO)C1Cc2ccccc2CN1S(=O)(=O)c1ccc(-c2ccon2)s1 (stereo not given)	0.8
O=C(O)[C@H]1Cc2c([nH]c3ccccc23)CN1S(=O)(=O)c1ccc(Oc2ccccc2)cc1	1.3
CN(C)c1ccc(Oc2ccc(S(=O)(=O)N3Cc4ccccc4CC3C(=O)NO)cc2)cc1 (stereo not given)	1.18
O=C(NO)C1Cc2ccccc2CN1S(=O)(=O)c1ccc(Oc2ccccc2)cc1 (stereo not given)	1
Nc1ccc2c(c1)CN(S(=O)(=O)c1ccc(-c3ccc(F)cc3)cc1)C(C(=O)NO)C2 (stereo not given)	1
O=C(NO)C1Cc2ccccc2CN1S(=O)(=O)c1ccc2oc3ccccc3c2c1 (stereo not given)	1
O=C(NCc1csc(S(=O)(=O)N2Cc3ccccc3CC2C(=O)NO)c1)c1ccccc1 (stereo not given)	0.88
COC(=O)c1csc(S(=O)(=O)N2Cc3ccccc3CC2C(=O)NO)c1OC (stereo not given)	0.94

----------
Target: Stromelysin-1 (Homo sapiens, UniProt P08254)
Sequence (P08254 whole entry): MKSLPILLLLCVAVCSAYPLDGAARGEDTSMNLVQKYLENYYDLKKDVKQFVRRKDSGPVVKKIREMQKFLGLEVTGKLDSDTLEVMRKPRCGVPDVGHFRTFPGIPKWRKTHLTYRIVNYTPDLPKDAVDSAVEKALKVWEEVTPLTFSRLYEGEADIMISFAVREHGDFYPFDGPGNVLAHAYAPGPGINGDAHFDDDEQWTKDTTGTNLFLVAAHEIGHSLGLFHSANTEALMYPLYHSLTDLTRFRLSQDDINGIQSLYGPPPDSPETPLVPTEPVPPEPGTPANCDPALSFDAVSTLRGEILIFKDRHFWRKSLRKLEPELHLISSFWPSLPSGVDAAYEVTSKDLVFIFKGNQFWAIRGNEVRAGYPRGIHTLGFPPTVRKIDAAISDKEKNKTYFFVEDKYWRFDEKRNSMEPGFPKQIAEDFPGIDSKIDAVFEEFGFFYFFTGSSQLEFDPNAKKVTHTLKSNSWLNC
Test: Inhibitory concentration against human matrix metalloprotease-3 (MMP-3)
Conditions: read-out: IC50
metric: IC50 (nM)

Take a look at these entries with their results.
compound	IC50 / nM
O=C(O)C1Cc2ccccc2CN1S(=O)(=O)c1ccc(/C=C/c2ccccc2)cc1 (centres undefined)	700
O=C(NCc1csc(S(=O)(=O)N2Cc3ccccc3CC2C(=O)NO)c1)c1ccccc1 (centres undefined)	6000
COc1ccc(S(=O)(=O)N2Cc3ncn(C)c3C[C@@H]2C(=O)NO)cc1	20

[a] COc1ccc(S(=O)(=O)N2Cc3cc(NC(=O)OC(C)(C)C)ccc3CC2C(=O)NO)cc1 (centres undefined)
[b] O=C(O)C1Cc2ccccc2CN1S(=O)(=O)CCc1ccc(-c2ccccc2)cc1 (centres undefined)
Select the item with the higher value of IC50 from the options a and b listed. Give the label of your selection.
b
(b: 50 nM, a: 20 nM)

[1] O=C(O)C1Cc2ccccc2CN1S(=O)(=O)c1ccc(Oc2ccccc2)cc1 (centres undefined)
[2] CC(C)(C)OC(=O)Nc1ccc2c(c1)CN(S(=O)(=O)c1ccc(-c3ccc(F)cc3)cc1)C(C(=O)NO)C2 (centres undefined)
[3] COc1ccc(S(=O)(=O)N2Cc3cc(NC(=O)[C@H](CC(=O)OC(C)(C)C)NC(=O)Cc4ccccc4)ccc3CC2C(=O)NO)cc1 (some centres undefined)
Output the entries ranked by IC50 from maximum down to minimum. Give the order by naming the labels one after another as requested.
1, 2, 3
